study target: DNA polymerase alpha catalytic domain (PolαCD) (human, UniProt P09884 338-1250)
Sequence (P09884 338-1250): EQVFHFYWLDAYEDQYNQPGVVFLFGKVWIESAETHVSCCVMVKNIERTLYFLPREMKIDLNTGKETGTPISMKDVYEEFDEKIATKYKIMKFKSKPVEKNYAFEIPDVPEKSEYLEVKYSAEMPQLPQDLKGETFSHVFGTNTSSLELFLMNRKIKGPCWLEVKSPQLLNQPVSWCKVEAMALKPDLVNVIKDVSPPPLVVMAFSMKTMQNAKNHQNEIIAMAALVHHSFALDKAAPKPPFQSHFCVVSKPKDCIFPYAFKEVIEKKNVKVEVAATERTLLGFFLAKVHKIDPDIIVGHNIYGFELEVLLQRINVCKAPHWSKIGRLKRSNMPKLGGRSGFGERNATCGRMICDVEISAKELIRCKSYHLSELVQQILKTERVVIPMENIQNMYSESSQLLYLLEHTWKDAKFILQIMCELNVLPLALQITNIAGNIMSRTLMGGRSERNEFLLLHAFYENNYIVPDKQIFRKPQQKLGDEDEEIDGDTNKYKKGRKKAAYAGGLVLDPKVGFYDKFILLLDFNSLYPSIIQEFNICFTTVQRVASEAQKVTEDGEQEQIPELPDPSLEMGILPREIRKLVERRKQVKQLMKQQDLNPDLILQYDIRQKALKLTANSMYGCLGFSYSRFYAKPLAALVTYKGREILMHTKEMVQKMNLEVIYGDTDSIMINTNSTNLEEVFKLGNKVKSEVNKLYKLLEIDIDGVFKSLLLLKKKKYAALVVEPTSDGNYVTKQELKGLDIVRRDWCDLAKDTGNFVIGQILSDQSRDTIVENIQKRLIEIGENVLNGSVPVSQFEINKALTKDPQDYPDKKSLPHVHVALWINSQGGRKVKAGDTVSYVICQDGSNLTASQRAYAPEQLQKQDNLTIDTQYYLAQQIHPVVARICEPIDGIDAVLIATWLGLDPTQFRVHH
procedure summary: BLI
measurement name: Kd

1. G-C template:primer (matched) (dsDNA, primer 3'-terminal dideoxycytidine) DNA 1: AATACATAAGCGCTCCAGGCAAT DNA 2: GCCTGGAGCGC    168 nM
